The values you see were collected from paper PMC6149751.

Target: 5-HT1AR (Homo sapiens)
Construct: gene HTR1A; full-length human receptor stably expressed in HEK293 cells; membranes
Sequence (P08908 1-422): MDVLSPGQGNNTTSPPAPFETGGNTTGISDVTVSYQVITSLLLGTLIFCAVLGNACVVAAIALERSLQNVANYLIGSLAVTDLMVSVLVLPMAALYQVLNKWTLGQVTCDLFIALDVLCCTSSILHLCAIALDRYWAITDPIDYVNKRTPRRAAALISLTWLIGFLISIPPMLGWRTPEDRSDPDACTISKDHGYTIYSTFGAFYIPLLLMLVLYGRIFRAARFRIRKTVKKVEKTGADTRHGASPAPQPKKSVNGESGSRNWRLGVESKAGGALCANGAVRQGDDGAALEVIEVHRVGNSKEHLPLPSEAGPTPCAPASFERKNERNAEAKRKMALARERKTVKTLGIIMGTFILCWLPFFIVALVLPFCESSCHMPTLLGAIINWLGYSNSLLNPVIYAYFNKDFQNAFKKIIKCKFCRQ
Experiment: [3H]-8-OH-DPAT displacement, HEK293 membranes
Type: binding
Excerpt: [3H]-8-OH-DPAT displacement, HEK293 membranes on 5-HT1AR
The threshold is 10 µM. Values of Ki beneath it are tagged t; values meeting or exceeding it are tagged f.

The examples below pair each entry with its known result.
{"COMPOUND": "COc1ccc(C2NCCC23C(=O)Nc2ccccc23)cc1OC (stereo not drawn)", "ANSWER LABEL": "t"}
{"COMPOUND": "Cn1c(=O)n(C)c2cc(C3NCCC34C(=O)Nc3ccccc34)ccc21 (stereo not drawn)", "ANSWER LABEL": "f"}
{"COMPOUND": "CC(C)c1ccc(C2NCCC23C(=O)Nc2ccccc23)cc1 (stereo not drawn)", "ANSWER LABEL": "t"}
{"COMPOUND": "O=C1Nc2ccccc2C12CCNC2c1ccc2c(c1)OCCO2 (stereo not drawn)", "ANSWER LABEL": "f"}

Kindly consider the entry below.
Does O=C1Nc2ccccc2C12CCNC2c1cccc2cccnc12 (stereo not drawn) have Ki strictly under 10 µM?
f

----------
molecular target: 5-HT2AR (Homo sapiens, UniProt P28223); construct: gene HTR2A; full-length human receptor expressed from plasmid in CHO-K1 cells (PerkinElmer); membranes; experiment: [3H]-Ketanserin displacement, CHO-K1 membranes; type: binding
Sequence (P28223 whole entry): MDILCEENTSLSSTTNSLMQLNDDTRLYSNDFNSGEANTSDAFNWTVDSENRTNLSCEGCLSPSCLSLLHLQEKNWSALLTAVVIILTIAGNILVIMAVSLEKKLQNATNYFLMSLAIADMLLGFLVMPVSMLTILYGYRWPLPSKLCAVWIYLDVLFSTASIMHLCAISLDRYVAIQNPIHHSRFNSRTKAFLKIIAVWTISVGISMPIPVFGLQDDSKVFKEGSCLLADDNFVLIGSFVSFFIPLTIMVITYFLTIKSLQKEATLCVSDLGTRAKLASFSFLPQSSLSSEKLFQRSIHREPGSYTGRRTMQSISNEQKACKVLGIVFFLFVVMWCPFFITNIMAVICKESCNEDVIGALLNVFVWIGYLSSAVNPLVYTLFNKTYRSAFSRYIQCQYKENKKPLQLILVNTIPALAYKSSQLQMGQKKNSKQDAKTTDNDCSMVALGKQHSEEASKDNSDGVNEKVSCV
As shown below, each of these compounds has a reported Ki value.
Give just the numeric value; µM need not be written.

Known results for compounds:
{"COMPOUND": "O=S(=O)(c1ccccc1)N1CC2(CCN(Cc3ccncc3)C2)c2ccccc21 (stereo not drawn) [39b]", "QUANTITY NAME": "Ki", "ENDPOINT UNIT": "µM", "MEASURED RESULT": 26.9}
{"COMPOUND": "O=C1Nc2ccccc2C12CCNC2c1ccc2c(c1)OCCO2 (stereo not drawn) [compound 10, 10]", "QUANTITY NAME": "Ki", "ENDPOINT UNIT": "µM", "MEASURED RESULT": 4.33}
{"COMPOUND": "Cn1c(=O)n(C)c2cc(C3NCCC34C(=O)Nc3ccccc34)ccc21 (stereo not drawn) [compound 15, 15]", "QUANTITY NAME": "Ki", "ENDPOINT UNIT": "µM", "MEASURED RESULT": 23.7}
{"COMPOUND": "COc1cc(C2NCCC23C(=O)Nc2ccccc23)ccc1OC(F)F (stereo not drawn) [compound 13, 13]", "QUANTITY NAME": "Ki", "ENDPOINT UNIT": "µM", "MEASURED RESULT": 5.77}
{"COMPOUND": "CC(C)c1ccc(C2NCCC23C(=O)Nc2ccccc23)cc1 (stereo not drawn) [compound 14, 14]", "QUANTITY NAME": "Ki", "ENDPOINT UNIT": "µM", "MEASURED RESULT": 4.54}

The compound O=C1Nc2ccc(F)cc2C12CCNC2c1ccc(F)c(Cl)c1 (stereo not drawn) [compound 16, 16] showed Ki equal to 53.9

The compound O=C1Nc2ccccc2C12CCNC2c1cccc2cccnc12 (stereo not drawn) [compound 12, 12] showed Ki equal to 1.12

The compound O=C1Nc2ccccc2C12CCN(S(=O)(=O)c1ccccc1)C2 (stereo not drawn) [compound 18] showed Ki equal to 87.4

The compound O=C1Nc2ccccc2C12CCNC2c1ccc(OCc2ccc(F)cc2)cc1 (stereo not drawn) [compound 8, 8] showed Ki equal to 2.28

The compound N#Cc1cccnc1Oc1ccc(C2NCCC23C(=O)Nc2ccccc23)cc1 (stereo not drawn) [compound 11, 11] showed Ki equal to 8.68

The compound O=C1Nc2ccccc2C12CCNC2c1ccc2c(c1)OCO2 (stereo not drawn) [compound 9, 9] showed Ki equal to 2.69

The compound COc1ccc(C2NCCC23C(=O)Nc2ccccc23)cc1OC (stereo not drawn) [compound 7, 7] showed Ki equal to 5.45

----------
As shown below, each of these compounds has a reported Ki value.
target: 5-HT6R (Homo sapiens); construct: gene HTR6; full-length human receptor stably expressed in HEK293 cells; membranes; assay: [3H]-LSD displacement, HEK293 membranes; format: binding; conditions: read-out: 5-HT6
Give just the numeric value; µM need not be written.

Known results for compounds:
{"COMPOUND": "O=S(=O)(c1ccccc1)N1CC2(CCN(Cc3ccc(F)cc3)C2)c2ccccc21 (stereo not shown) [44c]", "TESTED TARGET": "5-HT6R (Homo sapiens)", "Ki (µM)": 1.77}
{"COMPOUND": "O=C1N(S(=O)(=O)c2ccccc2)c2ccccc2C12CCNC2 (stereo not shown) [compound 17]", "TESTED TARGET": "5-HT6R (Homo sapiens)", "Ki (µM)": 12.3}

Proceeding to the next compound to report its Ki.
Kindly note: 5-HT6R (Homo sapiens), O=S(=O)(c1ccccc1)N1CC2(CCN(Cc3ccccc3)C2)c2ccccc21 (stereo not shown) [39a] , Ki value reported: 0.76

----------
molecular target: 5-HT1AR (Homo sapiens); construct: gene HTR1A; full-length human receptor stably expressed in HEK293 cells; membranes; test: [3H]-8-OH-DPAT displacement, HEK293 membranes; format: binding
QUANTITY NAME: Ki (µM)
Give just the numeric value; µM need not be written.

{"MOLECULE": "O=C1Nc2ccccc2C12CCNC2c1ccc(OCc2ccc(F)cc2)cc1 (stereo not shown) [compound 8, 8]", "MEASURED RESULT": 1.74}

The molecule O=C1Nc2ccccc2C12CCNC2c1ccc2c(c1)OCO2 (stereo not shown) [compound 9, 9] showed Ki equal to 9.84

The molecule N#Cc1cccnc1Oc1ccc(C2NCCC23C(=O)Nc2ccccc23)cc1 (stereo not shown) [compound 11, 11] showed Ki equal to 49.1

The molecule COc1cc(C2NCCC23C(=O)Nc2ccccc23)ccc1OC(F)F (stereo not shown) [compound 13, 13] showed Ki equal to 7.14

----------
Target: 5-HT6R (Homo sapiens, UniProt P50406)
Construct: gene HTR6; full-length human receptor stably expressed in HEK293 cells; membranes
Sequence (P50406 whole entry): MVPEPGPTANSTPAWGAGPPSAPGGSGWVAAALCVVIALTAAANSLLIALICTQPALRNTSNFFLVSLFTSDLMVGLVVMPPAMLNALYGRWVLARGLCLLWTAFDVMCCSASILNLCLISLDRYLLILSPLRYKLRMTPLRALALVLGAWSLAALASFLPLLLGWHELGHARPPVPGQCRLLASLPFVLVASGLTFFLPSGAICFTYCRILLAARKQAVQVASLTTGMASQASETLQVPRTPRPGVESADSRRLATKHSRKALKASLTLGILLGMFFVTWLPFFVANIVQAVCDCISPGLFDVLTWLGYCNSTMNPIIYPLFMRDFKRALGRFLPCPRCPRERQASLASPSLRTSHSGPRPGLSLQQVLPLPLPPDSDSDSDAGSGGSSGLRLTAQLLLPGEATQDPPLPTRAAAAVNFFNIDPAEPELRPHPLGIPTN
Experiment: [3H]-LSD displacement, HEK293 membranes
Type: binding
Conditions: read-out: 5-HT6
Source text: [3H]-LSD displacement, HEK293 membranes on 5-HT6R
As shown below, each of these compounds has a reported Ki value.
Give just the numeric value; nM need not be written.

Known results for compounds:
{"COMPOUND": "CCN1CCC2(C1)CN(S(=O)(=O)c1ccccc1)c1ccccc12 (stereo not shown) [40b]", "TESTED TARGET": "5-HT6R (Homo sapiens, UniProt P50406)", "MEASURED RESULT": 2420}
{"COMPOUND": "CN1CCC2(C1)CN(S(=O)(=O)c1ccccc1)c1ccccc12 (stereo not shown) [40a]", "TESTED TARGET": "5-HT6R (Homo sapiens, UniProt P50406)", "MEASURED RESULT": 1850}

The compound O=S(=O)(c1ccc(F)cc1)N1CC2(CCN(Cc3ccccc3)C2)c2ccccc21 (stereo not shown) [46c] showed Ki equal to 2450

The compound O=S(=O)(c1ccccc1F)N1CC2(CCN(Cc3ccccc3)C2)c2ccccc21 (stereo not shown) [46a] showed Ki equal to 190
